# Tested on: stomach ulcer
# assay-overview: Gastrointestinal ulcerogenicity
# Type: in vivo, Male Wistar rats
# conditions: 16 mg/kg p.o., after 6 hours
property-measured: Number of rats having a score of stomach ulcer of 2 or more/total number of rats used

>>> print(df.to_string())
                                   molecule  measurement
0  CC(C(N)=O)c1ccc2c(c1)SCC1CCCCC1C2=O (single isomer, unassigned)          4/6
1  CC(C(=O)O)c1ccc2c(c1)SCC1CCCCC1C2=O (stereo not shown) [H]          1/3
2  CC(C(=O)O)c1ccc2c(c1)SCC1CCCCC1C2=O (stereo not shown) [F]          2/6
3  CCCCOC(=O)C(C)c1ccc2c(c1)SCC1CCCCC1C2=O (stereo not shown)          0/3
